System: ACHN renal
Assay: NCI tumour cell line growth inhibition, 48 h
Listed next: entries and their corresponding TGI.
value.type: TGI

# smiles.structure, target.of.assay, result
measured = [
    ("C=[CH][Sn]([CH]=C)([O]c1cccc2cccnc12)[O]c1cccc2cccnc12", "ACHN renal", "14.1 µM"),
    ("CN(C)C(=S)Oc1ccc2ccc(=O)oc2c1", "ACHN renal", "> 100 µM"),
    ("O=C(Cc1ccccc1)NN1C(=O)/C(=C\\c2ccc(O)cc2)SC1=Nc1ccccc1", "ACHN renal", "> 100 µM"),
]

###

System: SK-MEL-2 melanoma

# molecule, GI50
measured = [
    ("CC1CC2(C)CC(=O)C1C1C(=O)N(CCN3CCCCC3)C(=O)C12 (stereo not drawn)", "> 100000 nM"),
    ("O=C(NCCCCCCCNC(=O)OCc1ccc2c(Cl)cc(Cl)c(O)c2n1)OCc1ccc2c(Cl)cc(Cl)c(O)c2n1", "1330 nM"),
    ("Cc1cc(Cl)ccc1Nc1nc(C(F)(F)F)ccc1C(=O)N1CCN(c2cccc(Cl)c2)CC1", "> 100000 nM"),
    ("O=C1C=CC(=O)c2c(O)c(N3CCN(CCOCCO)CC3)c(Cl)c(O)c21", "2300 nM"),
    ("CN1CCN(c2nc(-c3ccncc3)nc3sc4c(c23)CCCCCC4)CC1", "14600 nM"),
    ("Oc1ccc(Cl)cc1Cc1cc(Cl)ccc1O", "2210 nM"),
    ("COc1ccccc1CNCCCCCCCCCCCCN1C(=O)c2ccc3c4c(ccc(c24)C1=O)C(=O)N(CCCCCCCCCCCCNCc1ccccc1OC)C3=O", "1990 nM"),
    ("COc1cc([N+](=O)[O-])c2ncccc2c1[N+](=O)[O-]", "4170 nM"),
]
